Tested on: Escherichia coli TOP10
Assay: shrunken log2 fold change of peptide-encoding DNA abundance (4.5 h post-induction vs induction); higher = less antimicrobial activity (less host growth inhibition)
Conditions: time post-induction: 4.5 h; library: site-saturation at positions 5, 18, 19, 20
measurement_name: shrunken log2 fold change
Reply: number alone, nothing else.

Example results:
>>> endpoint_result("RRIRSRPPRLPRPRPRPLEFPRP")
-0.195
>>> endpoint_result("RRIRQRPPRLPRPRPRPVYDPRP")
-0.228
>>> endpoint_result("RRIRMRPPRLPRPRPRPHCRPRP")
0.274
>>> endpoint_result("RRIRNRPPRLPRPRPRPHREPRP")
-0.00211
>>> endpoint_result("RRIRFRPPRLPRPRPRPLSCPRP")
-0.73

Memo: RRIRKRPPRLPRPRPRPGTNPRP , reported shrunken log2 fold change: 0.124

Memo: RRIRARPPRLPRPRPRPGTVPRP , reported shrunken log2 fold change: 0.336

Memo: RRIRNRPPRLPRPRPRPHDHPRP , reported shrunken log2 fold change: 0.171

Memo: RRIRHRPPRLPRPRPRPNCNPRP , reported shrunken log2 fold change: -0.589

Memo: RRIRHRPPRLPRPRPRPEWAPRP , reported shrunken log2 fold change: -0.0848

Memo: RRIRRRPPRLPRPRPRPHLTPRP , reported shrunken log2 fold change: -0.132

Memo: RRIRARPPRLPRPRPRPNDDPRP , reported shrunken log2 fold change: 0.54

Memo: RRIRSRPPRLPRPRPRPPAIPRP , reported shrunken log2 fold change: 0.413

Memo: RRIRTRPPRLPRPRPRPHRTPRP , reported shrunken log2 fold change: -0.615

Memo: RRIRLRPPRLPRPRPRPWFTPRP , reported shrunken log2 fold change: -0.509

Memo: RRIRPRPPRLPRPRPRPHAAPRP , reported shrunken log2 fold change: 0.3

Memo: RRIRYRPPRLPRPRPRPGLMPRP , reported shrunken log2 fold change: -0.103

Memo: RRIRFRPPRLPRPRPRPCLSPRP , reported shrunken log2 fold change: -0.0617

----------
Test system: Escherichia coli TOP10
Experiment: shrunken log2 fold change of peptide-encoding DNA abundance (4.5 h post-induction vs induction); higher = less antimicrobial activity (less host growth inhibition)
Conditions: time post-induction: 4.5 h; library: site-saturation at positions 5, 18, 19, 20
Measured shrunken log2 fold change, listed per entry for reference.
Reply: number alone, nothing else.

Example results:
>>> endpoint_result("RRIRWRPPRLPRPRPRPYFCPRP")
-0.298
>>> endpoint_result("RRIRDRPPRLPRPRPRPCECPRP")
-0.201
>>> endpoint_result("RRIRHRPPRLPRPRPRPYEEPRP")
-0.431

Memo: RRIRIRPPRLPRPRPRPMIAPRP , reported shrunken log2 fold change: -0.101

Memo: RRIRTRPPRLPRPRPRPICQPRP , reported shrunken log2 fold change: -0.0148

Memo: RRIRCRPPRLPRPRPRPHYDPRP , reported shrunken log2 fold change: -0.687

Memo: RRIRCRPPRLPRPRPRPACHPRP , reported shrunken log2 fold change: -0.315

Memo: RRIRGRPPRLPRPRPRPADVPRP , reported shrunken log2 fold change: 0.508

Memo: RRIRLRPPRLPRPRPRPTIGPRP , reported shrunken log2 fold change: -0.192

Memo: RRIRSRPPRLPRPRPRPLEGPRP , reported shrunken log2 fold change: -0.131

Memo: RRIRLRPPRLPRPRPRPVNQPRP , reported shrunken log2 fold change: -0.138

Memo: RRIRIRPPRLPRPRPRPWEEPRP , reported shrunken log2 fold change: -0.04

Memo: RRIRGRPPRLPRPRPRPTDHPRP , reported shrunken log2 fold change: 0.335

Memo: RRIRIRPPRLPRPRPRPLQKPRP , reported shrunken log2 fold change: -0.0683

Memo: RRIRYRPPRLPRPRPRPKPFPRP , reported shrunken log2 fold change: 0.0506

Memo: RRIRCRPPRLPRPRPRPMWNPRP , reported shrunken log2 fold change: -0.195

Memo: RRIRQRPPRLPRPRPRPINTPRP , reported shrunken log2 fold change: -0.129

Memo: RRIRSRPPRLPRPRPRPHSVPRP , reported shrunken log2 fold change: -0.036

Memo: RRIRVRPPRLPRPRPRPPIRPRP , reported shrunken log2 fold change: -0.0403

Memo: RRIRRRPPRLPRPRPRPIPPPRP , reported shrunken log2 fold change: 0.452

Memo: RRIRYRPPRLPRPRPRPCLLPRP , reported shrunken log2 fold change: -1.04

Memo: RRIRFRPPRLPRPRPRPSRMPRP , reported shrunken log2 fold change: 0.311

----------
Tested on: Escherichia coli TOP10
Assay: shrunken log2 fold change of peptide-encoding DNA abundance (4.5 h post-induction vs induction); higher = less antimicrobial activity (less host growth inhibition)
Details: time post-induction: 4.5 h; library: site-saturation at positions 5, 18, 19, 20
measurement_name: shrunken log2 fold change

Example results:
>>> endpoint_result("RRIRARPPRLPRPRPRPHQLPRP")
0.086
>>> endpoint_result("RRIRVRPPRLPRPRPRPMHMPRP")
-0.164
>>> endpoint_result("RRIRPRPPRLPRPRPRPDQWPRP")
-0.0215
>>> endpoint_result("RRIRKRPPRLPRPRPRPFTNPRP")
-0.0844

Now for the sequence whose shrunken log2 fold change we want.
Memo: RRIRCRPPRLPRPRPRPMSPPRP , reported shrunken log2 fold change: -0.0415

----------
Test system: Escherichia coli TOP10
Experiment: shrunken log2 fold change of peptide-encoding DNA abundance (4.5 h post-induction vs induction); higher = less antimicrobial activity (less host growth inhibition)
Details: time post-induction: 4.5 h; library: site-saturation at positions 5, 18, 19, 20
// label = YES if shrunken log2 fold change is not less than 0.1, otherwise NO

Solved cases below.
>>> answer_label("RRIRGRPPRLPRPRPRPHSLPRP")
"NO"
>>> answer_label("RRIRGRPPRLPRPRPRPLDLPRP")
"YES"
>>> answer_label("RRIRPRPPRLPRPRPRPVIYPRP")
"NO"
>>> answer_label("RRIRNRPPRLPRPRPRPLRMPRP")
"YES"
>>> answer_label("RRIRNRPPRLPRPRPRPMWDPRP")
"NO"
>>> answer_label("RRIRSRPPRLPRPRPRPTVGPRP")
"YES"
>>> answer_label("RRIRQRPPRLPRPRPRPRNQPRP")
"NO"

Read the next record carefully.
Inquiry: Can RRIRDRPPRLPRPRPRPKMLPRP be said to have shrunken log2 fold change at or above 0.1?
Reply text: YES

----------
Test system: Escherichia coli TOP10
Experiment: shrunken log2 fold change of peptide-encoding DNA abundance (4.5 h post-induction vs induction); higher = less antimicrobial activity (less host growth inhibition)
Conditions: time post-induction: 4.5 h; library: site-saturation at positions 5, 18, 19, 20
Measured shrunken log2 fold change, listed per entry for reference.
Reply: number alone, nothing else.

Example results:
>>> endpoint_result("RRIRDRPPRLPRPRPRPCDPPRP")
0.041
>>> endpoint_result("RRIRYRPPRLPRPRPRPTHEPRP")
0.0198
>>> endpoint_result("RRIRIRPPRLPRPRPRPMMLPRP")
-0.0496
>>> endpoint_result("RRIRDRPPRLPRPRPRPLADPRP")
0.0597
>>> endpoint_result("RRIRWRPPRLPRPRPRPKANPRP")
0.51
>>> endpoint_result("RRIRMRPPRLPRPRPRPNHQPRP")
-0.105
>>> endpoint_result("RRIRRRPPRLPRPRPRPASEPRP")
0.182

Now for the sequence whose shrunken log2 fold change we want.
Let me check: RRIRHRPPRLPRPRPRPMNMPRP , system Escherichia coli TOP10, measured shrunken log2 fold change is -0.00968

----------
Tested on: Escherichia coli TOP10;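 also: peptides expressed intracellularly from a pBAD plasmid library in pooled LB shake-flask culture, induced with 0.3% L-arabinose, DNA abundance read by NGS, three biological replicates, DESeq2 with apeglm shrinkage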
Assay: shrunken log2 fold change of peptide-encoding DNA abundance (4.5 h post-induction vs induction); higher = less antimicrobial activity (less host growth inhibition)
Conditions: time post-induction: 4.5 h; library: site-saturation at positions 5, 18, 19, 20
// label = MET if shrunken log2 fold change is not less than 0.05, otherwise NOT MET

Solved cases below.
>>> answer_label("RRIRTRPPRLPRPRPRPQKYPRP")
"NOT MET"
>>> answer_label("RRIRMRPPRLPRPRPRPWCRPRP")
"MET"
>>> answer_label("RRIRGRPPRLPRPRPRPCPHPRP")
"MET"
>>> answer_label("RRIRLRPPRLPRPRPRPTIKPRP")
"NOT MET"
>>> answer_label("RRIRYRPPRLPRPRPRPKWHPRP")
"NOT MET"
>>> answer_label("RRIRMRPPRLPRPRPRPPEWPRP")
"MET"
>>> answer_label("RRIRDRPPRLPRPRPRPYAMPRP")
"MET"
>>> answer_label("RRIRIRPPRLPRPRPRPIVFPRP")
"NOT MET"

Read the next record carefully.
Inquiry: Can RRIRRRPPRLPRPRPRPFLMPRP be said to have shrunken log2 fold change at or above 0.05?
Reply text: MET

src = the supplement of paper PMC9112550
